# Tested on: HT29 colon
# protocolNotes: NCI tumour cell line growth inhibition, 48 h
Would you kindly list TGI for each of these compounds?

Some compounds with recorded TGI:
>>> measuredvalue("[O-]c1c[n+](CC[n+]2cc([O-])on2)no1")
"> 100 µM"
>>> measuredvalue("N/C(COc1ccc(Cl)cc1)=N\\NC(=O)c1ccncc1")
"> 100 µM"

Kindly review the next compound as well.
Q: Using known records, supply TGI for "CN(C)c1ccc(N=Nc2cccc3ncccc23)cc1"
A: > 100 µM

====

# Test system: KM20L2 colon
# protocolNotes: NCI tumour cell line growth inhibition, 48 h
endpointName: TGI

Some compounds with recorded TGI:
>>> measuredvalue("CC12CC3CC(C1)CC(N=[N+]=[N-])(C3)C2")
"> 100 µM"
>>> measuredvalue("Cc1ccc(C2=C(c3ccccc3)C(Br)(c3ccccc3)C(c3ccccc3)=C2c2ccc(C)cc2)cc1")
"> 100 µM"

Kindly review the next compound as well.
Q: Using known records, supply TGI for "Cc1cc2c(C(C)C)c(O)c(O)c(C=O)c2c(O)c1-c1c(C)cc2c(C(C)C)c(O)c(O)c(C=O)c2c1O"
A: 11.4 µM
